Tested on: E. coli
Assay: Effect of induced expression of cloned SPO1 genes on growth and viability of E. coli (liquid medium and colony formation)
Assay type: cell-based
Conditions: cloned gene(s) expressed from IPTG-inducible promoter; * = lethality conclusion based on failure to clone; ** = data not conclusive

{"columns": ["Molecule", "Lethality, E. coli"],
 "data": [
  ["Gene 45: product of SPO1 host-takeover gene 45, SEQ ID NO: 9 (protein, SPO1 Bacteriophage) MMMDKQVEEVKKHYPIVEDWSVIVARKEDDCMTVTDAVPFILAGYKNVSYEMDDIVVLCSEPIGLTWEDVRFLKNHEGSVSFEEIGYEDKAMVYHVDLG", "Toxic"]
]}
